Target: T1, mf TFRC ecto-mmh (REGN2054), monomeric monkey (cyno) Tfrc ectodomain with C-terminal myc-myc-hexahistidine tag (monkey (cyno), Macaca fascicularis, UniProt H9EXL1 89-760)
T1 construct: range 89-760; also called mfTfR-mmh; mfTFR-mmh
T1 sequence (chain, as listed by the source): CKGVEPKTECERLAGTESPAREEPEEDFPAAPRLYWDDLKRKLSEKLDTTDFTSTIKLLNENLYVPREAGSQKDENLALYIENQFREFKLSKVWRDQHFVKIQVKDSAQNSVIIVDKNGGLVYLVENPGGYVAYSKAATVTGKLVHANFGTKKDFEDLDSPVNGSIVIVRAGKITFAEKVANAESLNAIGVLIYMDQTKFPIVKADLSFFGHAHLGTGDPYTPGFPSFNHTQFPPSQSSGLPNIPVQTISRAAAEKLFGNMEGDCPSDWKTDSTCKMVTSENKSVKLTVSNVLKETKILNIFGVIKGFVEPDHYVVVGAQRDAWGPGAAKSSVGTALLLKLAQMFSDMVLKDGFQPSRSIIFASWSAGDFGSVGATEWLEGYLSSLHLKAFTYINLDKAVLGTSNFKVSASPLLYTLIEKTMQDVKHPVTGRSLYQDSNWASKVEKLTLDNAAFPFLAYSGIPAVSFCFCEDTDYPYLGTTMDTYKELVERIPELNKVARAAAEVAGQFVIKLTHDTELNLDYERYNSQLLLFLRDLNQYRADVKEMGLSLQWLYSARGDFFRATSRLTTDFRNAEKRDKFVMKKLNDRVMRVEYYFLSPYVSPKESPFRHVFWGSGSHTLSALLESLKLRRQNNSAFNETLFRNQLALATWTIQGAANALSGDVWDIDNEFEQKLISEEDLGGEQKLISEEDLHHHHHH
Test: SPR (Biacore), mAb captured on anti-human Fc, 100 nM mfTfR-mmh, 25 C
Documented 100 nM Ag Bound (RU) across a set of binders
Express your answer in RU, writing the number without its unit.

69326 (antibody, human IgG1, kappa, V domains shown, Tested as bivalent human IgG1 from CHO primary supernatant) VH: EVQLVESGGGLVQPGGSLRLSCAVSGFIFSSYEMNWVRQAPGKGLEWVSYISSSGSTIFYADSVKGRFTISRDNAKNSLYLQMNSLRAEDTAVYYCVSGVVLFDVWGQGTMVTVSS VL: EIVMTQSPATLSVSPGERATLSCRASQSVSSNFAWYQQKPGQAPRLLIYSASSRATGIPVRFSGSGSGTEFTLTISSLQSEDFAVYYCQQYNIWPRTFGQGTKVEIKR
9
12795B (antibody, human IgG1, kappa, V domains shown, Tested as bivalent human IgG1 from CHO primary supernatant) VH: EVQLVESGGGLVQPGGSLRLSCATSGFTFTSYDMKWVRQAPGLGLEWVSAISGSGGNTYYADSVKGRFTISRDNSRNTLYLQMNSLRAEDTAVYYCTRSHDFGAFDYFDYWGQGTLVTVSS VL: DIQMTQSPSSLSASVGDRVTITCRASQGIRDHFGWYQQKPGKAPKRLIYAASSLHSGVPSRFSGSGSGTEFTLTISSLQPEDFATYYCLQYDTYPLTFGGGTKVEIKR
364

// next entry
Value lookup for 100 nM Ag Bound (RU); key = 31863B (antibody, human IgG1, kappa, V domains shown, Tested as bivalent human IgG1 from CHO primary supernatant) VH: EVQLVESGGGLVQPGGSLRLSCAASGFTFNSYAMTWVRQAPGKGLEWVSFIGGSTGNTYYAGSVKGRFTISSDNSKKTLYLQMNSLRAEDTAVYYCAKGGAARRMEYFQHWGQGTLVTVSS VL: DIQMTQSPSSLSASIGDRVTITCRASQGISNYLAWYQQKPGKVPKLLIYAASTLQSGVPSRFSGSGSGTDFTLTISSLQPEDVATYYCQNHNSVPLTFGGGTKVEIKR
145
